Entry source: PubChem BioAssay (NCI)

Exercise: state measured TGI for each of the compounds provided.
# Tested on: SF-268 CNS
# Protocol text: NCI tumour cell line growth inhibition, 48 h

Fill in the blank: the reported TGI of CN1CCCCC1CCN1c2ccccc2Sc2ccc(S(C)=O)cc21 (stereo not given) is ____.
> 100 µM

Fill in the blank: the reported TGI of CP(C)(=S)P(C)(C)=S is ____.
> 100 µM

Fill in the blank: the reported TGI of CC(C)[C@@H]1CC[C@@H]2[C@@H]1[C@H](OC(=O)/C=C/c1ccccc1)[C@]1(C(C)C)C[C@@H](OC(=O)CO)[C@@]2(C)O1 is ____.
9.03 µM

Fill in the blank: the reported TGI of COC(=O)c1scc(N)c1-n1ccc(=O)[nH]c1=O is ____.
> 100 µM

Fill in the blank: the reported TGI of C=C1N(C)c2ccc(Cl)cc2C1(C)C is ____.
> 100 µM

Fill in the blank: the reported TGI of COC1(C)C=NCC(C)(C)NC(=O)C(C)(OC)C=NCC(C)(C)NC1=O (stereo not given) is ____.
> 10 µM

Fill in the blank: the reported TGI of C=C(CN1CCN(c2cccc(F)c2)CC1)c1ccc(C(=O)Nc2ccccc2N)cc1 is ____.
> 100 µM

Fill in the blank: the reported TGI of S=C(N/N=C(/c1ccccc1)c1ccccn1)Nc1cccc(Cl)c1 is ____.
16.6 µM

Fill in the blank: the reported TGI of c1ccc2c(c1)C(=Nc1ccc(N=C3c4ccccc4-c4ccccc43)cc1)c1ccccc1-2 is ____.
> 100 µM

Fill in the blank: the reported TGI of O=C(N/C(=C\c1ccccc1)C1Nc2ccccc2C(=O)O1)c1ccccc1 (stereo not given) is ____.
> 100 µM
